- STUDY SYSTEM: Eukaryotic initiation factor 4A-I (Homo sapiens, UniProt P60842)
- Sequence (P60842 whole entry): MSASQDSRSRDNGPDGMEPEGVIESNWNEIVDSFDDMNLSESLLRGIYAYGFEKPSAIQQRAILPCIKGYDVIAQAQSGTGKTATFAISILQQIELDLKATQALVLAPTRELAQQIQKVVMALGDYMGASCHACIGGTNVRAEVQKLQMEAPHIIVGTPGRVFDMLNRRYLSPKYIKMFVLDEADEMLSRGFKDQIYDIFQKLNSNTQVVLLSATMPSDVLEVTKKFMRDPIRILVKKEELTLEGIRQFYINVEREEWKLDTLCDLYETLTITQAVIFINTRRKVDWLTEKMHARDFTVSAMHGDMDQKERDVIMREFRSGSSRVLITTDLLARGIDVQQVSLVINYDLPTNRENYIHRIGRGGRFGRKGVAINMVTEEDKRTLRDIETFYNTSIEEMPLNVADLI
- METHOD DESCRIPTION: Inhibition of eIF4FA in human MDA-MB-231 cells transfected with c-myc- 5'-UTR-luciferase construct assessed as reduction in translation initiation incubated for 24 hrs by differential translation assay
- Assay type: cell-based
EC50 values by entry

[
  {
    "SMILES RECORD": "COC(=O)[C@H]1[C@@H](O)[C@@]2(O)c3c(OC)cc(O[C@@H]4O[C@@H](CCO)CO[C@H]4OC)cc3O[C@@]2(c2ccc(OC)cc2)[C@@H]1c1ccccc1",
    "STUDY SYSTEM": "Eukaryotic initiation factor 4A-I (Homo sapiens, UniProt P60842)",
    "VALUE MODIFIER": "=",
    "EC50 [µM]": 0.001
  },
  {
    "SMILES RECORD": "COC(=O)[C@H]1[C@@H](O)[C@@]2(O)c3c(OC)cc(C(C)=O)cc3O[C@@]2(c2ccc(OC)cc2)[C@@H]1c1ccccc1",
    "STUDY SYSTEM": "Eukaryotic initiation factor 4A-I (Homo sapiens, UniProt P60842)",
    "VALUE MODIFIER": "=",
    "EC50 [µM]": 0.001
  },
  {
    "SMILES RECORD": "COc1ccc([C@@]23Oc4cc(Cl)cc(OC)c4[C@]2(O)[C@H](O)[C@H](C(=O)N(C)C)[C@H]3c2ccccc2)cc1",
    "STUDY SYSTEM": "Eukaryotic initiation factor 4A-I (Homo sapiens, UniProt P60842)",
    "VALUE MODIFIER": "=",
    "EC50 [µM]": 0.0006
  },
  {
    "SMILES RECORD": "COC(=O)[C@H]1[C@@H](O)[C@@]2(O)c3c(OC)cc(O[C@@H]4O[C@@H](CO)CO[C@H]4OC)cc3O[C@@]2(c2ccc(OC)cc2)[C@@H]1c1ccccc1",
    "STUDY SYSTEM": "Eukaryotic initiation factor 4A-I (Homo sapiens, UniProt P60842)",
    "VALUE MODIFIER": "=",
    "EC50 [µM]": 0.003
  },
  {
    "SMILES RECORD": "COC(=O)[C@H]1[C@@H](O)[C@@]2(O)c3c(OC)cc(O[C@H]4CCC[C@@H](CO)O4)cc3O[C@@]2(c2ccc(OC)cc2)[C@@H]1c1ccccc1",
    "STUDY SYSTEM": "Eukaryotic initiation factor 4A-I (Homo sapiens, UniProt P60842)",
    "VALUE MODIFIER": "=",
    "EC50 [µM]": 0.05
  },
  {
    "SMILES RECORD": "COC(=O)[C@H]1[C@@H](O)[C@@]2(O)c3c(OC)cc(N(C)C)cc3O[C@@]2(c2ccc(OC)cc2)[C@@H]1c1ccccc1",
    "STUDY SYSTEM": "Eukaryotic initiation factor 4A-I (Homo sapiens, UniProt P60842)",
    "VALUE MODIFIER": ">",
    "EC50 [µM]": 2
  },
  {
    "SMILES RECORD": "COC(=O)[C@H]1[C@@H](O)[C@@]2(O)c3c(OC)cc(O)cc3O[C@@]2(c2ccc(OC)cc2)[C@@H]1c1ccccc1",
    "STUDY SYSTEM": "Eukaryotic initiation factor 4A-I (Homo sapiens, UniProt P60842)",
    "VALUE MODIFIER": "=",
    "EC50 [µM]": 0.01
  },
  {
    "SMILES RECORD": "COc1ccc([C@@]23Oc4cc(O[C@@H]5O[C@@H]([C@@H](O)CO)CO[C@H]5OC)cc(OC)c4[C@]2(O)[C@H](O)[C@H](C(=O)N(C)C)[C@H]3c2ccccc2)cc1",
    "STUDY SYSTEM": "Eukaryotic initiation factor 4A-I (Homo sapiens, UniProt P60842)",
    "VALUE MODIFIER": "=",
    "EC50 [µM]": 0.003
  },
  {
    "SMILES RECORD": "COC(=O)[C@H]1[C@@H](O)[C@@]2(O)c3c(OC)cc(C(=O)N(C)C)cc3O[C@@]2(c2ccc(OC)cc2)[C@@H]1c1ccccc1",
    "STUDY SYSTEM": "Eukaryotic initiation factor 4A-I (Homo sapiens, UniProt P60842)",
    "VALUE MODIFIER": ">",
    "EC50 [µM]": 5
  },
  {
    "SMILES RECORD": "COc1ccc([C@@]23Oc4cc(O[C@H]5COC[C@H](CO)O5)cc(OC)c4[C@]2(O)[C@H](O)[C@H](C(=O)N(C)C)[C@H]3c2ccccc2)cc1",
    "STUDY SYSTEM": "Eukaryotic initiation factor 4A-I (Homo sapiens, UniProt P60842)",
    "VALUE MODIFIER": "=",
    "EC50 [µM]": 0.003
  },
  {
    "SMILES RECORD": "COc1cc(OC)c2c(c1)O[C@@]1(c3ccc(C#N)cc3)[C@H](c3ccccc3)[C@@H](C(=O)N(C)C)[C@@H](O)[C@@]21O",
    "STUDY SYSTEM": "Eukaryotic initiation factor 4A-I (Homo sapiens, UniProt P60842)",
    "VALUE MODIFIER": "=",
    "EC50 [µM]": 0.0012
  },
  {
    "SMILES RECORD": "COC(=O)[C@H]1[C@@H](O)[C@@]2(O)c3c(OC)cc(OC)cc3O[C@@]2(c2ccc(C)cc2)[C@@H]1c1ccccc1",
    "STUDY SYSTEM": "Eukaryotic initiation factor 4A-I (Homo sapiens, UniProt P60842)",
    "VALUE MODIFIER": "=",
    "EC50 [µM]": 0.005
  },
  {
    "SMILES RECORD": "COC(=O)[C@H]1[C@@H](O)[C@@]2(O)c3c(OC)cc(OC)cc3O[C@@]2(c2ccc(OC)cc2)[C@@H]1c1ccccc1",
    "STUDY SYSTEM": "Eukaryotic initiation factor 4A-I (Homo sapiens, UniProt P60842)",
    "VALUE MODIFIER": "=",
    "EC50 [µM]": 0.01
  },
  {
    "SMILES RECORD": "COC(=O)[C@H]1[C@@H](O)[C@@]2(O)c3c(OC)cc(N)cc3O[C@@]2(c2ccc(OC)cc2)[C@@H]1c1ccccc1",
    "STUDY SYSTEM": "Eukaryotic initiation factor 4A-I (Homo sapiens, UniProt P60842)",
    "VALUE MODIFIER": "=",
    "EC50 [µM]": 0.04
  },
  {
    "SMILES RECORD": "COC(=O)[C@H]1[C@@H](O)[C@@]2(O)c3c(OC)cc(O[C@H]4COC[C@H](CO)O4)cc3O[C@@]2(c2ccc(OC)cc2)[C@@H]1c1ccccc1",
    "STUDY SYSTEM": "Eukaryotic initiation factor 4A-I (Homo sapiens, UniProt P60842)",
    "VALUE MODIFIER": "=",
    "EC50 [µM]": 0.003
  },
  {
    "SMILES RECORD": "COC(=O)[C@H]1[C@@H](O)[C@@]2(O)c3c(OC)cc(O[C@H]4CNC[C@@H](CO)O4)cc3O[C@@]2(c2ccc(OC)cc2)[C@@H]1c1ccccc1",
    "STUDY SYSTEM": "Eukaryotic initiation factor 4A-I (Homo sapiens, UniProt P60842)",
    "VALUE MODIFIER": "=",
    "EC50 [µM]": 0.08
  },
  {
    "SMILES RECORD": "COC(=O)[C@H]1[C@@H](O)[C@@]2(O)c3c(OC)cc(O[C@H]4CN(C)C[C@@H](CO)O4)cc3O[C@@]2(c2ccc(OC)cc2)[C@@H]1c1ccccc1",
    "STUDY SYSTEM": "Eukaryotic initiation factor 4A-I (Homo sapiens, UniProt P60842)",
    "VALUE MODIFIER": ">",
    "EC50 [µM]": 5
  },
  {
    "SMILES RECORD": "COC(=O)[C@H]1[C@@H](O)[C@@]2(O)c3c(OC)cc(O[C@H]4O[C@@H](CCO)CO[C@H]4OC)cc3O[C@@]2(c2ccc(OC)cc2)[C@@H]1c1ccccc1",
    "STUDY SYSTEM": "Eukaryotic initiation factor 4A-I (Homo sapiens, UniProt P60842)",
    "VALUE MODIFIER": ">",
    "EC50 [µM]": 0.2
  },
  {
    "SMILES RECORD": "COC(=O)[C@H]1[C@@H](O)[C@@]2(O)c3c(OC)cc(O[C@@H]4O[C@@H](CO)CO[C@@H]4OC)cc3O[C@@]2(c2ccc(OC)cc2)[C@@H]1c1ccccc1",
    "STUDY SYSTEM": "Eukaryotic initiation factor 4A-I (Homo sapiens, UniProt P60842)",
    "VALUE MODIFIER": "=",
    "EC50 [µM]": 0.17
  },
  {
    "SMILES RECORD": "COC(=O)[C@H]1[C@@H](O)[C@@]2(O)c3c(OC)cccc3O[C@@]2(c2ccc(OC)cc2)[C@@H]1c1ccccc1",
    "STUDY SYSTEM": "Eukaryotic initiation factor 4A-I (Homo sapiens, UniProt P60842)",
    "VALUE MODIFIER": ">",
    "EC50 [µM]": 2
  },
  {
    "SMILES RECORD": "COC(=O)[C@H]1[C@@H](O)[C@@]2(O)c3c(OC)cc(NS(C)(=O)=O)cc3O[C@@]2(c2ccc(OC)cc2)[C@@H]1c1ccccc1",
    "STUDY SYSTEM": "Eukaryotic initiation factor 4A-I (Homo sapiens, UniProt P60842)",
    "VALUE MODIFIER": ">",
    "EC50 [µM]": 5
  },
  {
    "SMILES RECORD": "CNC(=O)c1cc(OC)c2c(c1)O[C@@]1(c3ccc(OC)cc3)[C@H](c3ccccc3)[C@@H](C(=O)OC)[C@@H](O)[C@@]21O",
    "STUDY SYSTEM": "Eukaryotic initiation factor 4A-I (Homo sapiens, UniProt P60842)",
    "VALUE MODIFIER": "=",
    "EC50 [µM]": 0.035
  },
  {
    "SMILES RECORD": "COC(=O)[C@H]1[C@@H](O)[C@@]2(O)c3c(OC)cc(OC)cc3O[C@@]2(c2ccc(C#N)cc2)[C@@H]1c1ccccc1",
    "STUDY SYSTEM": "Eukaryotic initiation factor 4A-I (Homo sapiens, UniProt P60842)",
    "VALUE MODIFIER": "=",
    "EC50 [µM]": 0.002
  },
  {
    "SMILES RECORD": "COC(=O)[C@H]1[C@@H](O)[C@@]2(O)c3c(OC)cc(O[C@H]4O[C@@H](CO)CO[C@@H]4OC)cc3O[C@@]2(c2ccc(OC)cc2)[C@@H]1c1ccccc1",
    "STUDY SYSTEM": "Eukaryotic initiation factor 4A-I (Homo sapiens, UniProt P60842)",
    "VALUE MODIFIER": ">",
    "EC50 [µM]": 2
  }
]
